Tested on: Escherichia coli TOP10
Protocol Description: shrunken log2 fold change of peptide-encoding DNA abundance (4.5 h post-induction vs induction); higher = less antimicrobial activity (less host growth inhibition)
Settings: time post-induction: 4.5 h; library: site-saturation at positions 5, 18, 19, 20
Listing of entries alongside the reported shrunken log2 fold change.
Measured Endpoint: shrunken log2 fold change

>>> assay_result("RRIRARPPRLPRPRPRPMYVPRP")
-0.0341
>>> assay_result("RRIRDRPPRLPRPRPRPFIPPRP")
-0.334
>>> assay_result("RRIRQRPPRLPRPRPRPYKNPRP")
-1.02
>>> assay_result("RRIRMRPPRLPRPRPRPNSPPRP")
0.147
>>> assay_result("RRIRQRPPRLPRPRPRPGWSPRP")
0.119
>>> assay_result("RRIRDRPPRLPRPRPRPWNTPRP")
-0.166
>>> assay_result("RRIRPRPPRLPRPRPRPQMPPRP")
-0.451
>>> assay_result("RRIRCRPPRLPRPRPRPWNSPRP")
-0.529
>>> assay_result("RRIRSRPPRLPRPRPRPIYIPRP")
-0.776
>>> assay_result("RRIRDRPPRLPRPRPRPWKFPRP")
0.0062
>>> assay_result("RRIRGRPPRLPRPRPRPEKKPRP")
0.102
>>> assay_result("RRIRARPPRLPRPRPRPLEPPRP")
0.451
>>> assay_result("RRIRMRPPRLPRPRPRPNCMPRP")
0.183
>>> assay_result("RRIRKRPPRLPRPRPRPIYSPRP")
-0.41
>>> assay_result("RRIRWRPPRLPRPRPRPRPAPRP")
0.865

* * *

# shrunken log2 fold change values compiled below
System: Escherichia coli TOP10;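 note: peptides expressed intracellularly from a pBAD plasmid library in pooled LB shake-flask culture, induced with 0.3% L-arabinose, DNA abundance read by NGS, three biological replicates, DESeq2 with apeglm shrinkage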
Protocol Description: shrunken log2 fold change of peptide-encoding DNA abundance (4.5 h post-induction vs induction); higher = less antimicrobial activity (less host growth inhibition)
Settings: time post-induction: 4.5 h; library: site-saturation at positions 5, 18, 19, 20
Measured Endpoint: shrunken log2 fold change

>>> assay_result("RRIRMRPPRLPRPRPRPGLSPRP")
0.795
>>> assay_result("RRIRARPPRLPRPRPRPWFHPRP")
-0.301
>>> assay_result("RRIRARPPRLPRPRPRPIWQPRP")
0.166
>>> assay_result("RRIRSRPPRLPRPRPRPRCEPRP")
0.152
>>> assay_result("RRIRCRPPRLPRPRPRPCMTPRP")
-0.114
>>> assay_result("RRIRSRPPRLPRPRPRPEDAPRP")
0.821
>>> assay_result("RRIRCRPPRLPRPRPRPEMHPRP")
0.304
>>> assay_result("RRIRMRPPRLPRPRPRPMNNPRP")
-0.411
>>> assay_result("RRIRERPPRLPRPRPRPGFLPRP")
-0.0604
>>> assay_result("RRIRWRPPRLPRPRPRPWKDPRP")
-0.000687
>>> assay_result("RRIRLRPPRLPRPRPRPGMIPRP")
-0.419
>>> assay_result("RRIRRRPPRLPRPRPRPEVFPRP")
0.0496
>>> assay_result("RRIRCRPPRLPRPRPRPIQQPRP")
-0.0847
>>> assay_result("RRIRQRPPRLPRPRPRPYSFPRP")
-0.141
>>> assay_result("RRIRRRPPRLPRPRPRPVYHPRP")
-0.0449
>>> assay_result("RRIRCRPPRLPRPRPRPHMRPRP")
0.0898
>>> assay_result("RRIRIRPPRLPRPRPRPQWYPRP")
-0.485
>>> assay_result("RRIRERPPRLPRPRPRPFKLPRP")
-0.42
>>> assay_result("RRIRVRPPRLPRPRPRPPNQPRP")
0.184
>>> assay_result("RRIRGRPPRLPRPRPRPPNGPRP")
0.534
>>> assay_result("RRIRSRPPRLPRPRPRPNEEPRP")
0.0709
>>> assay_result("RRIRSRPPRLPRPRPRPYVRPRP")
-0.0846
>>> assay_result("RRIRFRPPRLPRPRPRPRTEPRP")
0.202
>>> assay_result("RRIRKRPPRLPRPRPRPASAPRP")
0.59
>>> assay_result("RRIRKRPPRLPRPRPRPKNAPRP")
0.216
>>> assay_result("RRIRARPPRLPRPRPRPVQEPRP")
0.509
>>> assay_result("RRIRIRPPRLPRPRPRPFNFPRP")
-0.31
>>> assay_result("RRIRLRPPRLPRPRPRPIDFPRP")
-0.384
>>> assay_result("RRIRCRPPRLPRPRPRPDLDPRP")
0.0676
>>> assay_result("RRIRQRPPRLPRPRPRPPKHPRP")
-0.142
>>> assay_result("RRIRPRPPRLPRPRPRPGASPRP")
0.344
>>> assay_result("RRIRYRPPRLPRPRPRPLHSPRP")
-0.803
>>> assay_result("RRIRKRPPRLPRPRPRPKWSPRP")
0.506
>>> assay_result("RRIRWRPPRLPRPRPRPQLDPRP")
0.0393
>>> assay_result("RRIRCRPPRLPRPRPRPAMFPRP")
-0.0946
>>> assay_result("RRIRNRPPRLPRPRPRPTYEPRP")
-0.172
>>> assay_result("RRIRWRPPRLPRPRPRPEQHPRP")
0.339
>>> assay_result("RRIRHRPPRLPRPRPRPSDIPRP")
-0.978
>>> assay_result("RRIRSRPPRLPRPRPRPPFSPRP")
-0.217
>>> assay_result("RRIRGRPPRLPRPRPRPIIDPRP")
0.859
>>> assay_result("RRIRVRPPRLPRPRPRPHRCPRP")
0.0572
>>> assay_result("RRIRCRPPRLPRPRPRPNAPPRP")
0.367
>>> assay_result("RRIRQRPPRLPRPRPRPRNSPRP")
-0.0108
>>> assay_result("RRIRMRPPRLPRPRPRPRPQPRP")
1.13
>>> assay_result("RRIRARPPRLPRPRPRPIECPRP")
0.157
>>> assay_result("RRIRCRPPRLPRPRPRPWQHPRP")
-0.256
>>> assay_result("RRIRQRPPRLPRPRPRPDFYPRP")
-0.288
>>> assay_result("RRIRMRPPRLPRPRPRPFSCPRP")
-0.115
>>> assay_result("RRIRERPPRLPRPRPRPYIFPRP")
-0.15
>>> assay_result("RRIRDRPPRLPRPRPRPYTTPRP")
-0.556
>>> assay_result("RRIRQRPPRLPRPRPRPYVIPRP")
0.0316
>>> assay_result("RRIRCRPPRLPRPRPRPDQQPRP")
0.0369
>>> assay_result("RRIRARPPRLPRPRPRPVDDPRP")
0.469
>>> assay_result("RRIRCRPPRLPRPRPRPNSSPRP")
-0.366
>>> assay_result("RRIRTRPPRLPRPRPRPAHDPRP")
0.268
>>> assay_result("RRIRMRPPRLPRPRPRPGPIPRP")
0.115
>>> assay_result("RRIRNRPPRLPRPRPRPAWKPRP")
0.122
>>> assay_result("RRIRKRPPRLPRPRPRPRGVPRP")
0.782
>>> assay_result("RRIRSRPPRLPRPRPRPPRKPRP")
0.73
>>> assay_result("RRIRLRPPRLPRPRPRPLSHPRP")
0.2
>>> assay_result("RRIRMRPPRLPRPRPRPPSQPRP")
1.18
>>> assay_result("RRIRHRPPRLPRPRPRPGREPRP")
0.0529
>>> assay_result("RRIRERPPRLPRPRPRPKENPRP")
-0.135
